# System: DeltatarO mutant
# PROCEDURE DETAILS: S. aureus survival, RN4220 and DeltatarO strains – OD600, teichoic acid synthesis inhibitors, primary screen (AID 463173)
# EXPERIMENTAL PARAMETERS: S. aureus RN4220 wild type/DeltatarO growth, OD600, 18 h, stronger effect = lower value, screened at 18.75 µg/mL (by protocol)
Among all 52,000 compounds or so, about 4,300 (8.3%) were called active. What follows is part of a selection rich in actives, with near analogues and random picks from the rest.
List of survival values.
Please state the figure in %; there is no need to write the unit.

COc1ccc(OC)c(CNC(=O)CCc2c(C)nc3c(c2C)c(=O)n(C)c(=O)n3C)c1: 89
Cc1ccccc1Cn1nnc2sc3c(c2c1=O)CCCC3: -1
CCOC(=O)c1ccccc1NC(=O)Nc1cc2c(cc1N1CCCCC1)n(C)c(=O)n2C: 76
Cc1ccc(CNC(=O)CN(c2ccc(C)cc2)S(=O)(=O)c2c(C)nn(C)c2C)cc1: 73
COc1ccc(S(=O)(=O)c2cn(C)c3cc(N4CCOCC4)c(F)cc3c2=O)cc1: 96
COc1ccc(C2C=C(c3ccccc3)Nc3nc(NS(=O)(=O)c4ccccc4)nn32)cc1 (stereo unspecified): 25

Prompt: What value of survival has been recorded for this entry: `CCN1CCN(C(=O)c2ccc3c(c2)N(Cc2ccccc2)C(=O)c2ccccc2S3(=O)=O)CC1`
Completion: 129

Prompt: Repeat for the following compound: `CCc1ccc(NC(=O)c2cc(-c3cccs3)on2)cc1`
Completion: 161

Prompt: Repeat for the following compound: `Cc1c(Cl)cccc1NC(=O)c1cc(-c2cccs2)on1`
Completion: 66

Prompt: Repeat for the following compound: `CC(C)=NNC(=O)CNc1ccccc1Cl`
Completion: 79

Prompt: Repeat for the following compound: `COc1ccc(OC)c(-c2cc(C(=O)Nc3ccc(C)c(C)c3)no2)c1`
Completion: -1

Prompt: Repeat for the following compound: `COc1ccc(OC)c(-c2cc(C(=O)Nc3cnn(Cc4ccc(Cl)cc4Cl)c3)no2)c1`
Completion: 64

Prompt: Repeat for the following compound: CC(NC(=O)c1cc(-c2ccc(Cl)cc2)on1)c1ccccc1 (stereo unspecified)
Completion: 142

Prompt: Repeat for the following compound: `CC(=O)c1cc(-c2ccc(F)cc2)n(CCC(=O)NCc2ccccc2C)c1C`
Completion: 81

Prompt: Repeat for the following compound: `COc1ccc(OC)c(-c2cc(C(=O)Nc3cccc(Cl)c3C)no2)c1`
Completion: 2

Prompt: Repeat for the following compound: `COc1cc(Cl)c(NC(=O)c2cc(S(=O)(=O)N3CCCCC3)c[nH]2)c(OC)c1`
Completion: 119

Prompt: Repeat for the following compound: `CCOc1ccc(NC2=NCCC(=O)N2Cc2cccs2)cc1`
Completion: 83

Prompt: Repeat for the following compound: `Cc1cc(C)c(NC(=O)Cn2c(=O)n(Cc3ccc(C(=O)NCc4ccco4)cc3)c(=O)c3sccc32)c(C)c1`
Completion: 173

Prompt: Repeat for the following compound: `CCCC1=Nc2cc(C(=O)NCc3ccc(OC)cc3)ccc2Sc2ccc(C)cc21`
Completion: 70

Prompt: Repeat for the following compound: `CC(C)NC(=O)CCn1c(SCc2c(F)cccc2Cl)nc2c(sc3ccccc32)c1=O`
Completion: 67

Prompt: Repeat for the following compound: `Cc1ccc(NC(=O)c2cc(-c3cccs3)on2)cc1C`
Completion: 45
